Just for reference, the RNAGym collection of RNA variant scans (doi:10.7554/elife.80360) is where these values come from.

B1: Hairpin Ribozyme (parent)
chain: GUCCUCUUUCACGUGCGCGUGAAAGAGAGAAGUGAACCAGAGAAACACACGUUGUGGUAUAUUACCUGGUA

Variants of: B1
EXPERIMENTAL PROTOCOL: self-cleavage, relative activity (ratio to wild type); higher = more cleavage; co-transcriptional
READOUT NAME: self-cleavage

>>> reported_value("C48U U60C")
0.389
>>> reported_value("U9A G54A")
0.392
>>> reported_value("A45C A49U")
0.202
>>> reported_value("A43G A49U")
0.197
>>> reported_value("U53G U58G")
0.405
>>> reported_value("C4U U53G")
0.412
>>> reported_value("C10A C46U")
0.2
>>> reported_value("A41G U62C")
0.198
